Test system: UACC-62
Assay: NCI tumour cell line growth inhibition, 48 h
Active and inactive are the calls of the source. No stated cut-off is given here; in the data, active = GI50 up to about 1.1 µM and inactive = higher.
Labels: yes for active, no for inactive

1) CCOC(=O)c1ccc(N(CCOS(=O)(=O)c2ccc(C)cc2)CCOS(=O)(=O)c2ccc(C)cc2)cc1: no
2) Nc1cccnc1NCC1(CO)CCCC1: no
3) C[C@@H](NC(=O)c1ccc(CNC(=O)/C=C/c2cccc(Oc3ccccc3)c2)cc1)c1ccccc1: no
4) CCC(C)NC(=S)N/N=C(\C)c1ccccn1 (stereo unspecified): yes
5) CC(=O)CC(OC(C)=O)C1=CCC2C(CC1C)OC(=O)C2C (stereo unspecified): no
6) O=C(c1cccs1)c1nccc2c1cnc1ccccc12: no
7) O=C1Cc2c([nH]c3ccc(C(=O)O)cc23)-c2ccccc2N1: no
8) CNC(=S)N/N=C/c1cccc(C)n1: no
9) CNC(=O)OCc1c(COC(=O)NC)c(-c2ccc(Cl)c(Cl)c2)n2c1SCC2: no
10) CCN(CC)CCCn1c(=O)c2ccccc2n2c3c(=O)n(C)c(=O)n(C)c3nc12: no
11) N#CC(NCCc1ccccc1)c1ccccc1 (stereo unspecified): no

* * *

Test system: SF-268
Experiment: NCI tumour cell line growth inhibition, 48 h
Activity calls are given as the source filed them. Cut-off read from the data, not from the text of the source: active = GI50 up to about 1.1 µM and inactive = higher.
Outcomes: 1 for active, -1 for inactive

1. Cc1cc(Cl)ccc1NC(=O)C(=O)Cc1ccc([N+](=O)[O-])c([N+](=O)[O-])c1CC(=O)C(=O)Nc1ccc(Cl)cc1C: -1
2. CC(C)(C)c1ccc(-n2c3nc(=O)n(-c4ccccc4C(F)(F)F)c(=O)c-3cc3ccccc32)cc1: -1
3. CCOC(OC1=C(C#N)CCC1)C(C)[Se]c1ccccc1 (configuration not stated): -1
4. O=c1[nH]nc(-c2ccc([N+](=O)[O-])cc2)[nH]1: -1
5. O=C1C=C(N2CCN(c3ncccn3)CC2)C(=O)c2c(O)ccc(O)c21: -1
6. CC(=O)OCC1OC(n2c3c(c(-c4ccc(Cl)cc4)c(C#N)c2=S)C(=O)CC(C)(C)C3)C(OC(C)=O)C(OC(C)=O)C1OC(C)=O (configuration not stated): -1
7. CCCCCCCCCCCCC(=O)OC(c1cnco1)c1nc(C(O)CC(O)C(O)C(C)O)co1 (configuration not stated): 1
8. CN1NC(c2ccccc2)=C(C#N)C(=O)CC1c1ccc(Br)cc1 (configuration not stated): -1
9. COc1ccc(C(=O)N/N=C2\C(=O)c3c(C)cc(C)cc3CC2(C)C)cc1: -1
10. COC(=O)C(Cc1ccccc1)NP(=O)(O)OCC1OC(n2cc(I)c(=O)[nH]c2=O)CC1O (configuration not stated): -1
11. CSc1cc(Cl)c(C)cc1S(=O)(=O)NC(=O)NNc1ccc(F)c(Cl)c1: -1
12. Cc1ccc(S(=O)(=O)N2CCC[C@@H]2C(=O)O[C@@H]2CCC3CC=CC32)cc1 (some centres not stated): -1
13. O=[N+]([O-])C(C(Cl)=C(Cl)Cl)=C(n1cncn1)n1cncn1: -1
14. CC1CC(=O)C(C(O)CC2CC(=O)N(c3ccccc3)C(=O)C2)C(C)C1 (configuration not stated): -1
15. COC(=O)C1C(O)CCC2CN3CCc4c([nH]c5ccccc45)C3CC21 (configuration not stated): -1
16. CCC(=O)Nc1ccc(NCC(=O)Nc2ccc(Cl)cc2)cc1: -1
17. CC1OC(OC2C(O)COC(OC3C(C)OC(OC4C(OC(=O)[C@]56CCC(C)(C)C[C@@H]5C5=CCC7[C@@]8(C)C[C@H](O)[C@H](OC9OC(CO)C(O)C(OC%10OC(CO)C(O)C(O)C%10O)C9O)[C@@](C)(CO)[C@@H]8CC[C@@]7(C)[C@]5(C)CC6)OCC(O)C4O)C(O)C3OC3OCC(O)(CO)C3O)C2O)C(O)C(O)C1O (some centres not stated): -1

* * *

Recorded GI50 values for a group of compounds are listed next.
Test system: KM12
Experiment: NCI tumour cell line growth inhibition, 48 h
The source made the active and inactive calls. Rule as the data show it: active = GI50 up to about 1.1 µM and inactive = higher.
attribute-measured: GI50

1. COC(=O)C(Cc1ccccc1)NP(=O)(O)OCC1OC(n2cc(I)c(=O)[nH]c2=O)CC1O (stereo not given): > 100 µM (inactive)
2. CCOC(=O)C(=O)CC1=Nc2ccccc2SC(c2cccc(C)c2)C1 (stereo not given): 16.2 µM (inactive)
3. COC(=O)C1CCC(=O)N1C(c1ccccc1)c1cc(OC)c(OC)c(OC)c1 (stereo not given): 45.8 µM (inactive)
4. CCc1cccc(CC)c1Nc1nc(-c2ccccc2-c2ccccc2)cs1: 94.8 µM (inactive)
5. O=C(O)CCC(=O)C(=O)O: > 100 µM (inactive)
6. O=C(CSc1nc(-c2ccccc2)c(-c2ccccc2)[nH]1)NNC(=S)Nc1ccccc1: > 100 µM (inactive)
7. COP(=O)(OC)/C(=C/c1cn(C(c2ccccc2)(c2ccccc2)c2ccccc2)cn1)NC=O: 32.9 µM (inactive)
8. OCCN=C1c2ccccc2C2C(c3ccccc31)C1c3ccccc3C(=NCCO)c3ccccc3C21 (stereo not given): 17.1 µM (inactive)
9. Cc1cc(C)nc(NS(=O)(=O)c2ccc(NC(=O)c3ccc(Cl)c4c(Nc5ccc(S(=O)(=O)Nc6nc(C)cc(C)n6)cc5)c5ccccc5nc34)cc2)n1: 21.8 µM (inactive)
10. O=C1C2c3[nH]c4ccccc4c3C3CCC(c4ccccc4)CC3C2C(=O)N1c1ccccc1 (stereo not given): > 100 µM (inactive)
11. C[C@]12CC[C@@H]3c4ccc(O)cc4CC[C@H]3[C@@H]1CC[C@@H]2OP(=O)(O)O: > 100 µM (inactive)
12. C=CC(=O)NCNC(=O)C=C: > 100 µM (inactive)
13. O=c1[nH]c2cc3cccnc3c(Cl)c2nc1CBr: 15.5 µM (inactive)
14. COC(=O)/C(C#N)=C1\NN=NN1c1ccc(OC)cc1: > 100 µM (inactive)
15. CC1(C)CCC2(C(=O)OC3OC(CO)C(O)C(O)C3O)CCC3(C)C(=CCC4C5(C)CCC(OC6OC(CO)C(O)C(O)C6O)C(C)(C)C5CCC43C)C2C1 (stereo not given): 6.5 µM (inactive)
16. Nc1nc2c(N)cc(C(F)(F)F)cc2nc1-c1ccccc1: > 100 µM (inactive)
17. CC(=O)C(C(=O)C(C)(C)C)C(=O)C(C)(C)C: > 100 µM (inactive)
18. Cc1c(C)c(C)c(-n2c(=O)n(C)c(=O)n2C(C)(C)C)c(C)c1C: > 100 µM (inactive)
19. CC(C)(C)OC(=O)N[C@H]1CC(=O)c2ccccc2N(CC(=O)O)C1=O: > 100 µM (inactive)
20. COc1ccc(N2C(=O)C(=O)N(c3ccc(/N=N\c4ccccc4)cc3)C2=S)cc1: 17.5 µM (inactive)

* * *

Test system: OVCAR-5
Test: NCI tumour cell line growth inhibition, 48 h
Calls of active or inactive are those of the source. No stated cut-off is given here; in the data, active = GI50 up to about 1.1 µM and inactive = higher.
attribute-measured: GI50

1. O=[N+]([O-])c1ccc(N2CCC(CCCC3CCN(c4ccc([N+](=O)[O-])cc4[N+](=O)[O-])CC3)CC2)c([N+](=O)[O-])c1: 16.4 µM (inactive)
2. C=C(C)C1CC2=C(O1)C(=O)c1cccc(O)c1C2=O (stereo not given): 1.57 µM (inactive)
3. CC(C)/C=N\N1C(N)=C(C#N)C(C#N)(C#N)C1C(C)C (stereo not given): 50.2 µM (inactive)
4. CN1NC(c2ccccc2)=C(C#N)C(=O)CC1c1ccc(Br)cc1 (stereo not given): 25.5 µM (inactive)
5. COc1nc(NC2OC(COC(C)=O)C(OC(C)=O)C(OC(C)=O)C2OC(C)=O)c2c(OC(C)=O)c(C)c(=O)oc2n1 (stereo not given): > 100 µM (inactive)
6. COc1cc2c(oc(=O)c3c4oc([Si](C)(C)C)cc4cc(OC)c23)c2cccc(O)c12: > 100 µM (inactive)
7. COc1ccc2c(c1)CCN=C2Cc1cc(OC)c(OC)cc1CCCl: 17.3 µM (inactive)
8. C=C1C(=O)OC2/C=C(/C)C(OC(C)=O)CC(O)/C(C)=C\C(OC(=O)/C(C)=C\C)C12 (stereo not given): > 100 µM (inactive)
9. C[C@]12CC[C@@H]3c4ccc(O)cc4CC[C@H]3[C@@H]1CC[C@@H]2OP(=O)(O)O: > 100 µM (inactive)
10. N#Cc1c2c(c(N3CCOCC3)n3c1nc1ccccc13)CCCC2: 21.1 µM (inactive)
11. Clc1cc(-c2ccccc2)nc2ccccc12: > 100 µM (inactive)
12. CCC1(CC)C(=O)NN(C(=O)c2ccccc2)C1=O: > 100 µM (inactive)
13. CCN(CC)CCn1ncc2c(N)ncnc21: > 100 µM (inactive)
14. O=[Se](O)O: 1.95 µM (inactive)
15. CN(C)c1ccc(/C(Br)=C2\OC(=O)c3ccccc32)cc1: 2.95 µM (inactive)
16. C=C1CC(C/C=C(\C)CC2CC(=C)C(=O)O2)OC1=O (stereo not given): > 100 µM (inactive)
17. C[C@]12CCC(=O)C(O)=C1CC[C@@H]1[C@@H]2CC[C@]2(C)C(=O)CC[C@@H]12: > 100 µM (inactive)
18. CCCC(=O)Nc1cc(C(=O)N2C[C@@H]3C[C@]34C2=CC(=O)c2[nH]cc(C)c24)n(COC)c1: 34.4 µM (inactive)
19. CC[n+]1c(/C=C/c2ccc(N(CCCl)CCCl)cc2)ccc2cc(Br)ccc21: 3.99 µM (inactive)
20. COc1cccc2c1C(=O)c1c(O)c3c(c(O)c1C2=O)C[C@@](O)(C(C)=O)CC3OC1CC(OC2CC(N)C(O)C(C)O2)C(O)C(C)O1 (stereo not given in full): > 61.2 µM (inactive)
